Kindly state T/C for each of the entries shown.
test system: BDF1 mice, P388 leukemia ip, median survival T/C; assay: NCI In Vivo Anticancer Drug Screen. Data for tumor model P388 Leukemia (intraperitoneal) in B6D2F1 (BDF1) mice; conditions: endpoint: median survival time; dose: 200.0 mg/kg/injection; schedule: Q04DX003 (ip); vehicle: Klucel (hydroxypropylcellulose) (HPC); higher = longer survival
Toxic doses and inconclusive results are not listed.

Before answering, review these 5 worked examples.
CCCCCCCCCCCCCCOc1ccc(Cc2ccccc2)cc1 | 90 % of control
CCCCCCCCCCCCCCCCOc1ccccn1 | 104 % of control
Nc1ccccc1SC1CC(=O)N(c2ccccc2)C1=O (stereo unspecified) | 95 % of control
CC(=O)C1CCC=C2C1CC1CC2C1(C)C (stereo unspecified) | 109 % of control
CCOC(=O)C(C)(C)CCl | 90 % of control

Note: attention shifts to another entry.
response.value for `Cc1cc(N(c2c(Cl)c(Cl)c(NS(=O)(=O)c3ccccc3)c(Cl)c2Cl)S(=O)(=O)c2ccccc2)cc(C)c1N` (field: T/C) = 96 % of control

Where do these numbers come from? They come from PubChem BioAssay AID328.
